- protocol_text: Hydrolysis of linkers with or without glucose present (half-life by LC-MS or UPLC)
- Format: physicochemical
- assay_conditions: 5% MeCN in PBS buffer, 10.000 equiv Glc; pH 7.4, 37°C, 0.42 mM linker
Entries and their Half-life of the linker values follow.
recorded_endpoint: Half-life of the linker

1) COc1cccc(C2N[C@H](C(=O)OCc3ccccc3)CS2)c1 (stereo partly drawn)
>72 h
2) O=C(OCc1ccccc1)[C@@H]1CSC(c2ccccc2)N1 (stereo partly drawn)
>48 h
3) CC(=O)Nc1ccc(C2N[C@H](C(=O)OCc3ccccc3)CS2)cc1 (stereo partly drawn)
>72 h
